# pIC50 values compiled below
target: PI3K-delta (Homo sapiens, UniProt O00329); construct: Millipore 14-604; assay: HTRF PI3K biochemical assay, delta isoform; settings: form screened (neutral or TFA salt) given, read-out: PI3Kdelta IC50
Sequence (O00329 whole entry, canonical isoform): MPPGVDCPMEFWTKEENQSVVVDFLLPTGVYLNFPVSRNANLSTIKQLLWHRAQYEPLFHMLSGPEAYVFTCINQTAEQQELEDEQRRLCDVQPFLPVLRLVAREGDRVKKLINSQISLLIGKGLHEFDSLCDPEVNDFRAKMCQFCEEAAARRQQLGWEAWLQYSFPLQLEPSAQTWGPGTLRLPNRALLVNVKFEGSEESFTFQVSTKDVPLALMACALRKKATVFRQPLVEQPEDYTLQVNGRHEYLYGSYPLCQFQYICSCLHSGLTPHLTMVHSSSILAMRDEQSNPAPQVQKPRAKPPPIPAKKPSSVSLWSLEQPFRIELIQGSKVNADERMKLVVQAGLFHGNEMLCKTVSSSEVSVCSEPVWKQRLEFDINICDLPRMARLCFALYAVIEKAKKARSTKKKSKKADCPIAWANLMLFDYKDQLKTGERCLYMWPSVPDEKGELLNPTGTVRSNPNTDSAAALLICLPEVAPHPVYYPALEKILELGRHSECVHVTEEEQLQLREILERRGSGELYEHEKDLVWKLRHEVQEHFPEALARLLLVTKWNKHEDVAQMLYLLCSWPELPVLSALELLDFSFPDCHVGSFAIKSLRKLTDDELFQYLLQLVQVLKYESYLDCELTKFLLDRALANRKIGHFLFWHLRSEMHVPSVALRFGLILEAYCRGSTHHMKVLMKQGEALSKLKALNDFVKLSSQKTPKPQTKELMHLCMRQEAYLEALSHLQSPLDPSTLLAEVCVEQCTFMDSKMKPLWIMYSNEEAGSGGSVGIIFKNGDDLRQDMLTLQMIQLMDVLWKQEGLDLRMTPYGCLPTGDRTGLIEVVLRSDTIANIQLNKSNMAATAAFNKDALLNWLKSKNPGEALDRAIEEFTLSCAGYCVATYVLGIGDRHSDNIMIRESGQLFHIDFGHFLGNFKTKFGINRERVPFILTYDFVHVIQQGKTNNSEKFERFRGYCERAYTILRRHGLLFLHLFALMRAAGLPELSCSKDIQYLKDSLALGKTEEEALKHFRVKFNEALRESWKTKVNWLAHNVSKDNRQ
Sequence (P27986 whole entry partner, canonical isoform): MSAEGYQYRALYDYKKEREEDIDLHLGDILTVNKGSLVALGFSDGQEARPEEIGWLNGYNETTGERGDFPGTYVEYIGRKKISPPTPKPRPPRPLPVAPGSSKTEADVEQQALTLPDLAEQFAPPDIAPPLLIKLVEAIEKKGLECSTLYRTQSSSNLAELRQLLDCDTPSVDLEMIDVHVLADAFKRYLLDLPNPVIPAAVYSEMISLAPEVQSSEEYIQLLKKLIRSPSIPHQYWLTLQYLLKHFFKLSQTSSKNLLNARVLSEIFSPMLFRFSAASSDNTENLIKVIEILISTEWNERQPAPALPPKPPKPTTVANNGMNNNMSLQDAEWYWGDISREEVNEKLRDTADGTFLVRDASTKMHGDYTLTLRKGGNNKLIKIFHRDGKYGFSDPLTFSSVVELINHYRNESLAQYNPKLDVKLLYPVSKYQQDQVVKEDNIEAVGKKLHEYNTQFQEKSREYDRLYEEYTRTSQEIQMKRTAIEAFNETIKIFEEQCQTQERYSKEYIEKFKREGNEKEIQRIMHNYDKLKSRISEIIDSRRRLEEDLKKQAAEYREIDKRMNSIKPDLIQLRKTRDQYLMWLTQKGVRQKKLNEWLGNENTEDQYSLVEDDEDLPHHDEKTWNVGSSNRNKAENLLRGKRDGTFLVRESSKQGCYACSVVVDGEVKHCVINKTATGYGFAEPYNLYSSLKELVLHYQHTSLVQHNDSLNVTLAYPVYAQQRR
pIC50: −log10 of the molar value.
test_readout: pIC50

>>> recorded_number("CCn1c(-c2cnc(C)nc2)nc2c(N[C@H]3CCN(C(=O)C45CC(C4)C5)C3)ncnc21")
8.68
>>> recorded_number("CCn1c(-c2cnc(CO)nc2)nc2c(N[C@H]3CCN(C(=O)C4CC4)C3)ncnc21")
8.47
>>> recorded_number("CCn1c(-c2cnc(C)nc2)nc2c(N[C@H]3CCN(C(=O)C4CCOCC4)C3)ncnc21")
8.62
>>> recorded_number("CCC(=O)N1CC[C@H](Nc2ncnc3c2nc(-c2ccc(Cl)nc2)n3C)C1")
8.68
>>> recorded_number("CCn1c(-c2cnc(C)nc2)nc2c(N[C@H]3CCN(C(=O)NCC4CCS(=O)(=O)C4)C3)ncnc21 (mixture of isomers)")
8.03
>>> recorded_number("CCn1c(C#Cc2ccccc2)nc2c(N[C@H]3CCN(C(=O)C4CC4)C3)ncnc21")
8.72
>>> recorded_number("CCn1c(C(=O)N[C@H](C)C2CC2)nc2c(N[C@H]3CCN(C(=O)C4CC4)C3)ncnc21")
7.92
>>> recorded_number("CCn1c(-c2cnc(C)nc2)nc2c(N[C@H]3CCN(C(=O)C4(C)CCCO4)C3)ncnc21 (mixture of isomers)")
7.59
>>> recorded_number("CCn1c(-c2cnc(C)nc2)nc2c(N[C@H]3CCN(C(=O)C4CC(F)(F)C4)C3)ncnc21")
8.17
>>> recorded_number("CCn1c(-c2cnc(C)nc2)nc2c(N[C@H]3CCN(C(=O)C4CC(=O)N(C(C)C)C4)C3)ncnc21 (mixture of isomers)")
7.89
>>> recorded_number("CCn1c(C#CCO)nc2c(N[C@H]3CCN(C(=O)C4CC4)C3)ncnc21")
7.32
>>> recorded_number("CCn1c(-c2cnc(C)nc2)nc2c(N[C@H]3CCN(C(=O)[C@H]4C[C@H]4C)C3)ncnc21")
7.92
>>> recorded_number("CCC(=O)N1CCC[C@H](Nc2ncnc3c2nc(-c2cnc(C)nc2)n3CC)C1")
7.55
>>> recorded_number("CCn1c(-c2cnc(C)nc2)nc2c(N[C@H]3CCN(C(=O)OCCCN(C)C)C3)ncnc21")
8.37
>>> recorded_number("CCn1ncc(-c2nc3c(N[C@H]4CCCN(C(=O)OC(C)(C)C)C4)ncnc3n2C)c1C")
7.72
>>> recorded_number("CCn1c(-c2cnc(C)nc2)nc2c(N[C@H]3C[C@H](C(=O)NCCN(C)C)N(C(=O)C4CC4)C3)ncnc21")
8.06
>>> recorded_number("CCn1c(N(C)CC(C)C)nc2c(N[C@H]3CCN(C(=O)C4CC4)C3)ncnc21")
7.00
>>> recorded_number("CCn1c(-c2cnc(C)nc2)nc2c(N[C@H]3CCN(C(=O)C4CC45CCCC5)C3)ncnc21 (single isomer, unassigned) [Compound 2-34]")
7.96
>>> recorded_number("CCn1ncc(-c2nc3c(N[C@H]4CCN(C(=O)C5CCOC(C)(C)C5)C4)ncnc3n2C)c1C (stereo partly drawn)")
8.80
>>> recorded_number("CCn1c(-c2cnc(C)nc2)nc2c(N[C@H]3C[C@H](C(N)=O)N(C(=O)C4CC4)C3)ncnc21")
8.52
>>> recorded_number("CCn1c(-c2cnc(C)nc2)nc2c(N[C@H]3CCN(C(=O)[C@H]4C[C@@H]4C)C3)ncnc21")
7.95
>>> recorded_number("CCn1c(-c2cnc(C)nc2)nc2c(N[C@H]3CCCN(C(=O)OC(C)(C)C)C3)ncnc21")
7.31
>>> recorded_number("CCn1c(-c2cnc(C)nc2)nc2c(N[C@H]3CCN(C(=O)NC(C)C)C3)ncnc21")
7.89
>>> recorded_number("CCn1c(-c2cnc(C)nc2)nc2c(N[C@H]3CCN(c4ncccc4C)C3)ncnc21")
7.89
>>> recorded_number("CCCn1c(-c2cnn(CC)c2C)nc2c(N[C@H]3CCN(C(=O)CC)C3)ncnc21")
7.70
>>> recorded_number("CCn1c(-c2cnc(C)nc2)nc2c(N[C@H]3CC[C@@H](C(=O)OC)C3)ncnc21")
7.49
>>> recorded_number("CCC(=O)N1CC[C@H](Nc2ncnc3c2nc(-c2ccc4[nH]ncc4c2)n3C)C1")
8.37
>>> recorded_number("CCn1c(-c2cnc(C)nc2)nc2c(N[C@H]3CCN(C(=O)OCCOC)C3)ncnc21")
8.39
>>> recorded_number("CCn1c(C(=O)N2CCOCC2)nc2c(N[C@H]3CCN(C(=O)C4CC4)C3)ncnc21")
6.85

* * *

molecular target: PI3K-delta (Homo sapiens, UniProt O00329); construct: Millipore 14-604; assay: HTRF PI3K biochemical assay, delta isoform; conditions: form screened (neutral or TFA salt) given, read-out: PI3Kdelta IC50
pIC50: −log10 of the molar value.
Catalogue of pIC50 values
test_readout: pIC50

>>> recorded_number("CCn1c(C(=O)NCCC(F)(F)F)nc2c(N[C@H]3CCN(C(=O)C4CC4)C3)ncnc21")
7.85
>>> recorded_number("CCn1c(-c2cnc(C)nc2)nc2c(N[C@H]3CCN(C(=O)OC4CCCCC4)C3)ncnc21")
8.41
>>> recorded_number("CCn1ncc(-c2nc3c(N[C@@H]4CCN(C(=O)OC(C)(C)C)C4)ncnc3n2C)c1C")
7.82
>>> recorded_number("CCn1c(-c2cnc(C)nc2)nc2c(N[C@H]3CCN(C(=O)C4(N)CC4)C3)ncnc21")
7.70
>>> recorded_number("CCn1c(-c2cnc(C)nc2)nc2c(N[C@H]3C[C@H](C(=O)N(C)C)N(C(=O)C4CC4)C3)ncnc21")
7.85
>>> recorded_number("CCn1c(-c2cnc(C)nc2)nc2c(N[C@H]3CCN(C(=O)C(C)(C)N)C3)ncnc21")
7.21
>>> recorded_number("CCn1c(C(=O)Nc2ccccc2)nc2c(N[C@H]3CCN(C(=O)C4CC4)C3)ncnc21")
7.82

* * *

// reported log10(IC50) per item
target: PI3K-delta (Homo sapiens, UniProt O00329); construct: Millipore 14-604; assay: HTRF PI3K biochemical assay, delta isoform; conditions: form screened (neutral or TFA salt) given, read-out: PI3Kdelta IC50
test_readout: log10(IC50) (log10 of the value in nM)

>>> recorded_number("CCn1c(-c2ccc(C(F)(F)F)cc2)nc2c(N[C@H]3CCN(C(=O)OC(C)(C)C)C3)ncnc21 [Compound 1-24]")
0.18
>>> recorded_number("CCn1c(-c2cnc(C)nc2)nc2c(N[C@H]3C[C@H](C(=O)N[C@@H](C)C(C)C)N(C(=O)C4CC4)C3)ncnc21 [Compound 15-6]")
1.30
>>> recorded_number("CCC(=O)N1CC[C@H](Nc2ncnc3c2nc(-c2cnc(C)nc2)n3CC)C1 [Compound 2-17]")
0.43
>>> recorded_number("CCC(=O)N1CC[C@H](Nc2ncnc3c2nc(-c2ccc(OC)c(F)c2)n3C)C1 [Compound 3-10]")
0.26
>>> recorded_number("CCn1c(-c2cnc(C)nc2)nc2c(N[C@H]3CCN(C(=O)[C@H]4CCOC4)C3)ncnc21 [Compound 2-41]")
0.63
>>> recorded_number("CCn1c(-c2cnc(C)nc2)nc2c(N[C@H]3CCN(C(=O)OC(C)C)C3)ncnc21 [Compound 13-5]")
0.79
>>> recorded_number("CCn1c(-c2cnc(OC)c(C)c2)nc2c(N(C)[C@H]3CCN(C(=O)OC(C)(C)C)C3)ncnc21 [Compound 1-4]")
0.23
>>> recorded_number("CCn1c(-c2cnc(C)nc2)nc2c(N[C@H]3CC[C@@H](C(=O)N(C)C)C3)ncnc21 [Compound 5-4]")
0.72

* * *

molecular target: PI3K-delta (Homo sapiens); construct: Millipore 14-604; test: HTRF PI3K biochemical assay, delta isoform; settings: form screened (neutral or TFA salt) given, read-out: PI3Kdelta IC50
Entries annotated with measured IC50
test_readout: IC50 (nM)

>>> recorded_number("CCn1c(-c2ccc(C(F)(F)F)nc2)nc2c(N[C@H]3CCN(C(=O)[C@H]4C[C@H](OC)C4)C3)ncnc21")
1.2
>>> recorded_number("CCn1c(-c2cnc(C)nc2)nc2c(N[C@H]3CCN(C(=O)c4cn(C)nn4)C3)ncnc21")
4.7
>>> recorded_number("CCn1c(-c2ccc(C(F)(F)F)cc2)nc2c(N[C@H]3CCN(C(=O)C4CC4)C3)ncnc21")
1.2

* * *

biological target: PI3K-delta (Homo sapiens, UniProt O00329); construct: Millipore 14-604; experiment: HTRF PI3K biochemical assay, delta isoform; details: form screened (neutral or TFA salt) given, read-out: PI3Kdelta IC50
pIC50: −log10 of the molar value.
Think of 8 as a floor: if pIC50 stands on it or above, it is satisfied; beneath it, not satisfied.

>>> discrete_label("CCn1c(CC2CN(S(C)(=O)=O)C2)nc2c(N[C@H]3CCN(C(=O)C4CC4)C3)ncnc21")
"not satisfied"
>>> discrete_label("CCn1c(C(F)F)nc2c(N[C@H]3CCN(C(=O)[C@H]4C[C@H](OC)C4)C3)ncnc21")
"not satisfied"
>>> discrete_label("CCn1ncc(-c2nc3c(N[C@@H]4CCCN(C(=O)OC(C)(C)C)C4)ncnc3n2C)c1C")
"not satisfied"
>>> discrete_label("CCn1ncc(-c2nc3c(N[C@H]4CCN(C(=O)OC(C)(C)C)C4)ncnc3n2CC)c1C")
"satisfied"
>>> discrete_label("CCn1c(-c2cnc(C)nc2)nc2c(N[C@H]3CCN(C(=O)C4(COC)CC4)C3)ncnc21")
"not satisfied"
>>> discrete_label("CCn1c(-c2cnc(C)nc2)nc2c(N[C@H]3CCN(C(=O)c4ocnc4C)C3)ncnc21")
"satisfied"
